- experiment: Binding affinity to monkey NK3R
endpoint name: Ki (nM)
Number in nM, nothing else.

## Task So what does the record say about Ki for Cc1nc(-c2nnc3n2CCN(C(=O)c2ccc(-c4cccs4)cc2)[C@@H]3C)cs1 ?
## Result 20

====

Cytochrome P450 2D6 (Homo sapiens, UniProt P10635) IC50 data
Sequence (P10635 whole entry): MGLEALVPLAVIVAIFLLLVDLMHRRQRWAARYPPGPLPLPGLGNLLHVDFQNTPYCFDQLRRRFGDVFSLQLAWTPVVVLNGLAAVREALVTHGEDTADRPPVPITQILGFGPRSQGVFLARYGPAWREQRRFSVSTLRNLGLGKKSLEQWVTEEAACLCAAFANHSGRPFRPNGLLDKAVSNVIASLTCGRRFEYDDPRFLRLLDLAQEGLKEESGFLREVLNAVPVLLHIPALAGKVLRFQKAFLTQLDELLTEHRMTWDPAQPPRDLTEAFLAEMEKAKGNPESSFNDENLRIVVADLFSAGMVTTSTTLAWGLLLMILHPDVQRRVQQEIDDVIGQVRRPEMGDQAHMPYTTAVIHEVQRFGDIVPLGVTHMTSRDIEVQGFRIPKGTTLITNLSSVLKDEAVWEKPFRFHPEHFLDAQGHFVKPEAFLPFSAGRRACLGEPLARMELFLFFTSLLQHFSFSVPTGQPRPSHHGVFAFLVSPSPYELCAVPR

>  <molecule smiles>
Cc1noc(-c2nnc3n2CCN(C(=O)c2ccc(F)cc2)[C@@H]3C)n1

>  <endpoint name>
IC50

>  <test result>
> 100 µM

$$$$

Now turn to the next molecule.
## Task Lab note: need IC50 with Cytochrome P450 2D6 (Homo sapiens, UniProt P10635) for entry Cc1nsc(-c2nnc3n2CCN(C(=O)c2ccc(F)cc2)C3(C)C)n1 , please look it up.
## Result > 100 µM
